- Tested on: CYP3A
- Assay Procedure: Determination of CYP3A activity by erythromycin demethylation method (rat liver homogenate/microsomes)
- Design: dose or concentration left out as unconfirmed
- Condition Context: inhibitor concentration 0.04; Table 1 Inhibition
Assay Endpoint: CYP3A Activity (percentage of control)

Please look up its CYP3A Activity (percentage of control): O=c1ccc2ccc(O)cc2o1
84.87 ± 6.93 percentage of control

Item O=c1c(O)c(-c2ccc(O)c(O)c2)oc2cc(O)cc(O)c12 has what recorded CYP3A Activity (percentage of control)?
77.52 ± 15.98 percentage of control

// returns reported CYP3A Activity (percentage of control) for input O=c1cc(-c2ccc(O)cc2)oc2cc(O)cc(O)c12
54.64 ± 5.16 percentage of control

Field request: CYP3A Activity (percentage of control) | item: O=c1cc(-c2ccc(O)c(O)c2)oc2cc(O)cc(O)c12
94.10 ± 10.37 percentage of control

Look up CYP3A Activity (percentage of control) for this molecule: O=c1c(O)c(-c2ccc(O)cc2)oc2cc(O)cc(O)c12
76.57 ± 3.83 percentage of control

Form field: reported CYP3A Activity (percentage of control) of CC(=O)OCCCc1ccccc1 [3-phenylpropyl acetate]
70.50 ± 0.59 percentage of control

Quick check: CYP3A Activity (percentage of control) of CC(Cc1ccc(O)c(O)c1)C(C)Cc1ccc(O)c(O)c1 (stereo not shown) [Nordihydroguaiaretic Acid] ?
60.28 ± 1.95 percentage of control

Record request: CYP3A Activity (percentage of control) value, item O=C1C[C@@H](c2ccc(O)cc2)Oc2cc(O)cc(O)c21
62.37 ± 12.33 percentage of control

What value of CYP3A Activity (percentage of control) has been recorded for this entry: CC(C)[C@@H](C)/C=C/[C@@H](C)[C@H]1CC[C@H]2C3=CC=C4C[C@@H](O)CC[C@]4(C)[C@H]3CC[C@]12C
63.71 ± 11.57 percentage of control

For Oc1cc(O)c2c(c1)O[C@H](c1ccc(O)c(O)c1)[C@@H](O)C2 (relative stereo) [(+)-catechin] , what is its reported CYP3A Activity (percentage of control)?
62.70 ± 8.53 percentage of control

###

I'd be grateful if you could share measured CYP3A Activity (percentage of control) for these entries.
- Test system: CYP3A
- Assay Procedure: Determination of CYP3A activity by erythromycin demethylation method (rat liver homogenate/microsomes)
- Parameters: dose or concentration left out as unconfirmed
- Condition Context: inhibitor concentration 0.004; Table 1 Inhibition

Quick check: CYP3A Activity (percentage of control) of O=c1cc(-c2ccc(O)c(O)c2)oc2cc(O)cc(O)c12 [Luteolin] ?
88.22 ± 0.00 percentage of control

Please report the recorded CYP3A Activity (percentage of control) for C=C[C@H]1[C@H](O[C@@H]2O[C@H](CO)[C@@H](O)[C@H](O)[C@H]2O)OC=C2C(=O)OCC[C@]21O [swertiamarin] .
79.71 ± 1.76 percentage of control

Quick check: CYP3A Activity (percentage of control) of O=c1ccc2ccc(O)cc2o1 [umbelliferone] ?
89.00 ± 12.02 percentage of control
